# Study system: FLT3 kinase (Homo sapiens, UniProt P36888)
# Construct: purchased SignalChem
# Sequence (P36888 27-993): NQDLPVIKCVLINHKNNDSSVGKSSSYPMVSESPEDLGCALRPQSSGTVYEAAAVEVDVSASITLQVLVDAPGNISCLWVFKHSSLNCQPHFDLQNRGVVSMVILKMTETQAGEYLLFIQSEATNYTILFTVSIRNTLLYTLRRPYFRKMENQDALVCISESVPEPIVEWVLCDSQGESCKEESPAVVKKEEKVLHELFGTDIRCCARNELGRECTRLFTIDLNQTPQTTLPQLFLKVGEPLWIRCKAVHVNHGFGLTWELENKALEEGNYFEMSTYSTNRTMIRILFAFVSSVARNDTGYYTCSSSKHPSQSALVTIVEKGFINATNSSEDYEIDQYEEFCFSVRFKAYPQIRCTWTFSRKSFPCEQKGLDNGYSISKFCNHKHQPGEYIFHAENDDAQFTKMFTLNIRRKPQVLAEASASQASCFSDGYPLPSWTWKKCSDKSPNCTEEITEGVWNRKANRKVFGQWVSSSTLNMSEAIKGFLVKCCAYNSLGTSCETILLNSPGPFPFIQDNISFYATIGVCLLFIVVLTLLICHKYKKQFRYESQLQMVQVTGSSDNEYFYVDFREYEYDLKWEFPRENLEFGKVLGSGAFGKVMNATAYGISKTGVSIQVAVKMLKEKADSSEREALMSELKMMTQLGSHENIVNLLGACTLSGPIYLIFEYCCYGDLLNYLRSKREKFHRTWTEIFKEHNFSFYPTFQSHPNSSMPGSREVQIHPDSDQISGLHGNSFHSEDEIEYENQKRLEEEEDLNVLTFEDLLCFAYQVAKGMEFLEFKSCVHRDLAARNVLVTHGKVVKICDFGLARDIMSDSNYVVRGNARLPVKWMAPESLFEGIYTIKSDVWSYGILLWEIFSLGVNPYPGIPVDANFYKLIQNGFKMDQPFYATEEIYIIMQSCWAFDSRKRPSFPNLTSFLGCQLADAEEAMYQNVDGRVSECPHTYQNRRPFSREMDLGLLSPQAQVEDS
# Procedure summary: FLT3 kinase assay (AlphaScreen)
# Format: biochemical
# Condition label: read-out: Ranking of IC50 values, FLT3
Record form. Attribute: IC50. Fill in for each entry.

[in] I am curious: what IC50 value has been reported for C[C@@H]1CN(C(=O)c2ccc(-c3cc4c(s3)Cc3c(-c5ccc6cnn(C)c6c5)n[nH]c3-4)cc2)C[C@H](C)O1 [Compound 19] ?
[out] 1 to 10 nM

[in] I am curious: what IC50 value has been reported for Cn1ncc2ccc(-c3n[nH]c4c3Cc3sc(-c5ccc(CN6CCC(F)(F)C6)cc5)cc3-4)cc21 [Compound 67] ?
[out] 1 to 10 nM

[in] I am curious: what IC50 value has been reported for CN1CCN(Cc2ccc(-c3cc4c(s3)Cc3c(-c5ccc6cn[nH]c6c5)n[nH]c3-4)cc2)CC1 [Compound 83] ?
[out] < 1 nM

[in] I am curious: what IC50 value has been reported for C[C@@H]1CN(Cc2ccc(-c3cc4c(s3)Cc3c(-c5ccc6cn[nH]c6c5)n[nH]c3-4)cc2)C[C@H](C)O1 [Compound 7] ?
[out] 1 to 10 nM

[in] I am curious: what IC50 value has been reported for Cn1ncc2ccc(-c3n[nH]c4c3Cc3sc(-c5ccc(C(=O)N6CCOCC6)c(F)c5)cc3-4)cc21 [Compound 44] ?
[out] < 1 nM

[in] I am curious: what IC50 value has been reported for Cc1ccc(-c2cc3c(s2)Cc2c(-c4ccc5cnn(C)c5c4)n[nH]c2-3)cn1 [Compound 11] ?
[out] 1 to 10 nM

Where do these numbers come from? They come from patent US12448394B2.
